# TARGET_OR_SYSTEM: Human CCR5 receptor (Homo sapiens)
METRIC: IC50 (nM)

>  <COMPOUND>
Cc1ncnc(C)c1C(=O)N1CCC(C)(N2CCC(N3C(=O)N(CC4CCOCC4)C[C@H]3c3ccccc3)CC2)CC1

>  <TARGET_OR_SYSTEM>
Human CCR5 receptor (Homo sapiens)

>  <UNIT_LABEL>
nM

>  <IC50>
23.7

$$$$
>  <COMPOUND>
COC(=O)N1CCC(CN2C[C@@H](c3ccccc3)N(C3CCN(C4(C)CCN(C(=O)c5c(C)cc(C#N)nc5C)CC4)CC3)C2=O)CC1

>  <TARGET_OR_SYSTEM>
Human CCR5 receptor (Homo sapiens)

>  <UNIT_LABEL>
nM

>  <IC50>
35.7

$$$$

A = CCO[C@H]1CC[C@H](CN2C[C@@H](c3ccccn3)N(C3CCN(C4(C)CCN(C(=O)c5c(C)cc(C#N)nc5C)CC4)CC3)C2=O)CC1
B = CCO[C@H]1CC[C@H](CN2C[C@@H](c3ccccc3)N(C3CCN(C4(C)CCN(C(=O)c5c(C)noc5C(F)(F)F)CC4)CC3)C2=O)CC1
Q. Would you kindly point out which of A and B has the smaller IC50 figure? Record your answer as the label of the chosen record.
A. B

P = CCCCC1CN(CC2CCOCC2)C(=O)N1C1CCN(C2(C)CCN(C(=O)c3c(C)ncnc3C)CC2)CC1 (centres unmarked)
Q = Cc1noc(C(F)(F)F)c1C(=O)N1CCC(C)(N2CCC(N3C(=O)N(CC4CCOCC4)C[C@H]3c3ccccc3)CC2)CC1
R = Cc1cc(C#N)nc(C)c1C(=O)N1CCC(C)(N2CCC(N3C(=O)N(CC4CCOCC4)C[C@H]3c3ccccc3)CC2)CC1
Q. Rank items: key IC50, increasing. Submit the labels in the order that the ranking request calls for.
A. Q, R, P
(Q: 5.1 nM, R: 11.2 nM, P: 110 nM)

a = Cc1ncnc(C)c1C(=O)N1CCC(C)(N2CCC(N3C(=O)N(CC4CCOCC4)CC3c3cccc(F)c3)CC2)CC1 (centres unmarked)
b = Cc1cc(C#N)nc(C)c1C(=O)N1CCC(C)(N2CCC(N3C(=O)N(CC4CCN(C(N)=O)CC4)C[C@H]3c3ccccc3)CC2)CC1
c = Cc1ncnc(C)c1C(=O)N1CCC(C)(N2CCC(N3C(=O)N(CC4CCOCC4)CC3c3ccccc3)CC2)CC1 (centres unmarked)
Q. Reorder the items by IC50, least to greatest. Reply with the item labels sorted in the order that was asked for.
A. c, b, a

----------
Quick record of IC50 values for UniProt P51681.
METRIC: IC50 (nM)

1 = CCCCC1CN(CC2CCOCC2)C(=O)N1C1CCN(C2(C)CCN(C(=O)c3c(C)cc(C#N)nc3C)CC2)CC1 (stereo not drawn) [I-4]
2 = CCO[C@H]1CC[C@H](CN2C[C@@H](c3ccccc3)N(C3CCN(C4(C)CCN(C(=O)c5c(C)ncnc5C)CC4)CC3)C2=O)CC1 [I-9]
Q. When their IC50 values are compared, which is larger, 1 or 2 ? Indicate your choice by writing its label.
A. 2

P = Cc1cc(C#N)nc(C)c1C(=O)N1CCC(C)(N2CCC(N3C(=O)N(C4CCOCC4)C[C@H]3c3ccccc3)CC2)CC1 [I-12]
Q = CCCCC1CN(C2CCOCC2)C(=O)N1C1CCN(C2(C)CCN(C(=O)c3c(C)ncnc3C)CC2)CC1 (stereo not drawn) [I-2]
Q. Short answer wanted: higher IC50, P or Q ? Give the chosen item's label as your response.
A. Q

----------
pIC50: −log10 of the molar value.
A short record of pIC50 observed with Human CCR5 receptor (Homo sapiens, UniProt P51681) follows.
Sequence (P51681 whole entry): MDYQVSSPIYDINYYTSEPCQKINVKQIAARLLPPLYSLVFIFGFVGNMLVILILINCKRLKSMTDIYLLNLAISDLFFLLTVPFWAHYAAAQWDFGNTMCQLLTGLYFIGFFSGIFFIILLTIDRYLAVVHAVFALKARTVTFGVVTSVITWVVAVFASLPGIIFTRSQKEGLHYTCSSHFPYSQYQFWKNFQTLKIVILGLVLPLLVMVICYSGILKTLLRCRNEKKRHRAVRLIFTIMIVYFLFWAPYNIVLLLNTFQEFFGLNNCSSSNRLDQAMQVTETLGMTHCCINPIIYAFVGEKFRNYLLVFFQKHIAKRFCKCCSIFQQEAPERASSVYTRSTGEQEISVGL
METRIC: pIC50

>  <LINE_NOTATION>
Cc1cc(C#N)nc(C)c1C(=O)N1CCC(C)(N2CCC(N3C(=O)N(CC4CCN(S(C)(=O)=O)CC4)C[C@H]3c3ccccc3)CC2)CC1

>  <TARGET_OR_SYSTEM>
Human CCR5 receptor (Homo sapiens, UniProt P51681)

>  <pIC50>
7.44

$$$$

A = Cc1ncnc(C)c1C(=O)N1CCC(C)(N2CCC(N3C(=O)N(C4CCOCC4)C[C@H]3c3ccccc3)CC2)CC1
B = CC(=O)N1CCC(CN2C[C@@H](c3ccccc3)N(C3CCN(C4(C)CCN(C(=O)c5c(C)cc(C#N)nc5C)CC4)CC3)C2=O)CC1
Q. Which gives the smaller pIC50 number: A or B ? Give the chosen item's label as your response.
A. A

The origin of these recorded values is patent US20090028818A1.
